# assay-method-text: chemical genetic growth profiling, strain panel (AID 1159580);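 further: tested at 20 µM; growth read once vehicle control cultures reached saturation at 30 °C; 1 = growth at the plate median or of vehicle wells; lower values mean less growth of the strain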
# cond: S. cerevisiae deletion strains, growth OD, locus YGL086W, strain mad1
About 2,000 (36%) of roughly 5,500 compounds were called active. Roughly 18% stayed inconclusive and do not appear here. No stated cut-off is given here; in the data, active means normalized growth mostly below about 0.91 (no sharp cut-off); inconclusive means no clear call, values can overlap the other calls; inactive means mostly above about 0.92. The list shows a part of the results.
Thanks in advance; please answer with one of these: label 1 (active), label 0 (inactive)

For CC1=C2C(=CO[C@H](C)[C@H]2C)C(=O)C(C(=O)O)=C1O , what call appears in the results of this test?
label 0

Same question for CC(=O)Oc1cc(OC(C)=O)c2c(=O)c(-c3ccccc3)coc2c1 please.
label 0

Same question for CC(=O)O.CC(=O)O.[Cd] please.
label 1

* * *

Measured normalized growth, listed per entry for reference.
# assay-method-text: chemical genetic growth profiling, strain panel (AID 1159580);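 further: tested at 20 µM; growth read once vehicle control cultures reached saturation at 30 °C; 1 = growth at the plate median or of vehicle wells; lower values mean less growth of the strain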
# cond: S. cerevisiae deletion strains, growth OD, locus YKL190W, strain CNB1, hits give low values
Out of some 5,500 compounds screened, about 2,000 (36%) were called active. Roughly 18% stayed inconclusive and do not appear here. The list shows a part of the results.

// known answers, use as guide
Request the reported normalized growth associated with CC1(C)CC(=O)c2c(S(C)(=O)=O)sc(Br)c2C1
0.998 (inactive)

Same question for Cn1c(=O)c2[nH]c(C3CCCC3)nc2n(C)c1=O please.
1.02 (inactive)

More entries:
Request the reported normalized growth associated with O=c1c(-c2ccc(O)cc2)coc2cc(O)cc(O)c12
1.02 (inactive)

Same question for COc1ccc(-c2cc(=O)c3c(OC(C)=O)cc(OC(C)=O)cc3o2)cc1 please.
0.967 (inactive)

Same question for COc1ccc(-c2coc3cc(OC)cc(O)c3c2=O)cc1 please.
0.979 (inactive)

Same question for O=C(O)c1nc2cc(Cl)c(Cl)cc2[nH]c1=O please.
0.996 (inactive)

* * *

# assay-method-text: chemical genetic growth profiling, strain panel (AID 1159580);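 further: tested at 20 µM; growth read once vehicle control cultures reached saturation at 30 °C; 1 = growth at the plate median or of vehicle wells; lower values mean less growth of the strain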
# cond: S. cerevisiae deletion strains, growth OD, locus YOR106W, strain vam3
Hit rate of the full screen: of about 5,500 compounds, about 2,000 (36%) were called active. Another 18% or so got no clear call; they are omitted. No stated cut-off is given here; in the data, active means normalized growth mostly below about 0.91 (no sharp cut-off); inconclusive means no clear call, values can overlap the other calls; inactive means mostly above about 0.92. The list shows a part of the results.
Thanks in advance; please answer with one of these: class 1 = active, class 0 = inactive

Take a look at these entries with their results.
For COc1cc2cc[n+]3cc4c(OC)c(OC)ccc4cc3c2cc1OC , what call appears in the results of this test?
class 0

Same question for CC1=C2C(=CO[C@H](C)[C@H]2C)C(=O)C(C(=O)O)=C1O please.
class 0

Same question for NCCc1ccc(O)c(O)c1 please.
class 0

Same question for COCCOC(=O)C1=C(C)NC(C)=C(C(=O)OC(C)C)C1c1cccc([N+](=O)[O-])c1 (configuration not stated) please.
class 0

More entries:
For Cc1cc2cc3c(C)cc(=O)oc3c(C)c2o1 , what call appears in the results of this test?
class 0

Same question for COC(=O)C1=C(C)NC(C)=C(C(=O)OCCN(C)Cc2ccccc2)C1c1cccc([N+](=O)[O-])c1 (configuration not stated) please.
class 0

* * *

# assay-method-text: chemical genetic growth profiling, strain panel (AID 1159580);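 further: tested at 20 µM; growth read once vehicle control cultures reached saturation at 30 °C; 1 = growth at the plate median or of vehicle wells; lower values mean less growth of the strain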
# cond: S. cerevisiae deletion strains, growth OD, locus YGR252W, strain gcn5, hits give low values
About 2,000 (36%) of roughly 5,500 compounds were called active. Not shown: some 18% with an inconclusive outcome. The list shows a part of the results.
# note: exactly 0.9 is not below, so it is class 0; use class 1 for normalized growth strictly under it

Take a look at these entries with their results.
Does the reported normalized growth of COc1cc(O)c2c(=O)c(-c3ccc(O)cc3)coc2c1 stay below 0.9?
class 1

Same question for CC(=O)O[C@@H]1CC2C(C)(C)CCC(=O)[C@]2(C)C2CC[C@@]3(C)[C@H](c4ccoc4)OC(=O)C4OC43[C@@]21C (stereo partly specified) please.
class 0

Same question for CC(=O)O[C@@H]1CC2C(C)(C)[C@H](O)C[C@H](O)[C@]2(C)C2CC[C@@]3(C)[C@H](c4ccoc4)OC(=O)[C@H]4O[C@]43[C@@]21C (stereo partly specified) please.
class 0

Same question for CN(C)CCC=C1c2ccccc2CCc2ccccc21 please.
class 0

Same question for Cc1coc2ccccc2c1=O please.
class 0

Same question for CN(C)CC/C=C1/c2ccccc2COc2ccccc21 please.
class 0

Same question for CC1NC(=O)NC1=O (stereo unspecified) please.
class 0

Same question for C=CCc1ccccc1OCC(O)CNC(C)C (stereo unspecified) please.
class 0

Same question for CC(=O)Nc1cccc(O)c1 please.
class 0

Same question for COc1c2c(cc3c1OCO3)CC[N+](C)=C2 please.
class 0

More entries:
Does the reported normalized growth of CC(=O)CC(c1ccccc1)c1c(O)c2ccccc2oc1=O (stereo unspecified) stay below 0.9?
class 0

Same question for COc1ccc(-c2cc(=O)c3ccccc3o2)cc1OC please.
class 1

Same question for CC(C)Oc1ccc2c(=O)cc(-c3ccccc3)oc2c1 please.
class 1
